The entries below come with measured percent reduction in ELISA signal values attached.
Tested Target: T1, Antibody No. 465.1
T1 construct: also called Ab No. 465.1
Measurement Notes: peptide blocking ELISA on plate-bound VISTA, peptide 2 ug/mL
The response must be a number in % with no trailing unit.

In the examples that follow, each entry is paired with its recorded percent reduction in ELISA signal.
| Binder | Units | Quantitative Readout |
| --- | --- | --- |
| HHHSEHRVHGAMELQ (synthetic overlapping peptide from human VISTA) [Spiked Peptide 25 (HHHSEHRVHGAMELQ)] | % | 10 |
| PIRNLTFQDLHLHHG (synthetic overlapping peptide from human VISTA) [Spiked Peptide 12 (PIRNLTFQDLHLHHG)] | % | 9 |

percent reduction in ELISA signal recorded for this binder, CVVYPSSSQESENIT (synthetic overlapping peptide from human VISTA) [Spiked Peptide 30 (CVVYPSSSQESENIT)] , is 0

# percent reduction in ELISA signal (binder: MRNLTLLDSGLYCCL (synthetic overlapping peptide from human VISTA) [Spiked Peptide 21 (MRNLTLLDSGLYCCL)] ) is 0

So for HLHHGGHQAANTSHD (synthetic overlapping peptide from human VISTA) [Spiked Peptide 14 (HLHHGGHQAANTSHD)] , the logged percent reduction in ELISA signal turned out to be 11

Entry NFSITMRNLTLLDSG (synthetic overlapping peptide from human VISTA) [Spiked Peptide 20 (NFSITMRNLTLLDSG)] — recorded percent reduction in ELISA signal = 0

// percent reduction in ELISA signal value for TFQDLHLHHGGHQAA (synthetic overlapping peptide from human VISTA) [Spiked Peptide 13 (TFQDLHLHHGGHQAA)] : 15

GHDVTFYKTWYRSSR (synthetic overlapping peptide from human VISTA) [Spiked Peptide 7 (GHDVTFYKTWYRSSR)] has a reported percent reduction in ELISA signal of 0

Consider TCRLLGPVDKGHDVT (synthetic overlapping peptide from human VISTA) [Spiked Peptide 5 (TCRLLGPVDKGHDVT)] . Its measured percent reduction in ELISA signal is 0

// percent reduction in ELISA signal value for GPVDKGHDVTFYKTW (synthetic overlapping peptide from human VISTA) [Spiked Peptide 6 (GPVDKGHDVTFYKTW)] : 0

Lab note: QNVTLTCRLLGPVDK (synthetic overlapping peptide from human VISTA) [Spiked Peptide 4 (QNVTLTCRLLGPVDK)] gave percent reduction in ELISA signal of 0
